- Test system: Trypanosoma cruzi
- protocol: Antitrypanosomal activity against Trypanosoma cruzi Tulahuen CL2 amastigotes expressing beta galactosidase infected in human MRC5 cells assessed as reduction in parasite burden using chlorophenol red beta-D-galactopyranoside as substrate and measured after 7 days by spectrophotometric analysis
- Format: functional, organism-based
- condition.notes: Tulahuen CL2, MRC5, 168 h

- structure.smiles.string: "CCCn1c(NC(=O)c2ccc(F)cc2)nc2ccc(F)cc21"
  experimental.system: "Trypanosoma cruzi"
  IC50: "> 64 µM"
- structure.smiles.string: "CCCn1c(NS(=O)(=O)c2ccc(Br)cc2)nc2ccccc21"
  experimental.system: "Trypanosoma cruzi"
  IC50: "> 64 µM"
- structure.smiles.string: "N#Cc1ccc2nc(NC(=O)c3ccc(C(F)(F)F)nc3)n(C3CC3)c2c1"
  experimental.system: "Trypanosoma cruzi"
  IC50: "> 64 µM"

The measurements presented in this section are drawn from ChEMBL document CHEMBL5352453.
